assay-procedure: Accelerated stability test of 5% solutions in commercial solvents (54° C., 2 weeks, HPLC)
Assay type: physicochemical
condition-label: solvent Green 25 (dimethylsulfoxide, acetophenone, 2-ethylhexyl acetate)

{"smiles-string": "CCCCCCSc1nc(C)c(N=CN(C)CC)cc1C", "percentage of degradation / %": 2.96}
{"smiles-string": "CCN(C)C=Nc1cc(Br)c(SCc2cccc(C(F)(F)F)c2)nc1C", "percentage of degradation / %": 2.07}
{"smiles-string": "CCN(C)C=Nc1cc(C)c(SCc2c(F)cccc2F)nc1C", "percentage of degradation / %": 1.84}
{"smiles-string": "CCN(C)C=Nc1cc(C)c(SCC2CCCCC2)nc1C", "percentage of degradation / %": 2.82}

---

assay-procedure: Accelerated stability test of 5% solutions in commercial solvents (54° C., 2 weeks, HPLC)
Format: physicochemical
condition-label: solvent FMPC (N-formylmorpholine and propylene carbonate)
Quick reference: percentage of degradation of the listed items.
property-label: percentage of degradation (%)

{"smiles-string": "CCN(C)C=Nc1cc(C)c(SCC2CCCCC2)nc1C", "readout-number": 0}
{"smiles-string": "CCCCCCSc1nc(C)c(N=CN(C)CC)cc1C", "readout-number": 0.79}
{"smiles-string": "CCN(C)C=Nc1cc(C)c(SCc2c(F)cccc2F)nc1C", "readout-number": 1.53}
{"smiles-string": "CCN(C)C=Nc1cc(Br)c(SCc2cccc(C(F)(F)F)c2)nc1C", "readout-number": 1.46}

---

Below is a list of entries, each paired with its recorded percentage of degradation value.
assay-procedure: Accelerated stability test of 5% solutions in commercial solvents (54° C., 2 weeks, HPLC)
Type: physicochemical
condition-label: solvent Alkamuls T/20 (ethoxylated sorbitan monolaurate)

{"smiles-string": "CCN(C)C=Nc1cc(Br)c(SCc2cccc(C(F)(F)F)c2)nc1C", "percentage of degradation / %": 58.61}
{"smiles-string": "CCN(C)C=Nc1cc(C)c(SCC2CCCCC2)nc1C", "percentage of degradation / %": 81.02}
{"smiles-string": "CCN(C)C=Nc1cc(C)c(SCc2c(F)cccc2F)nc1C", "percentage of degradation / %": 79.78}
{"smiles-string": "CCCCCCSc1nc(C)c(N=CN(C)CC)cc1C", "percentage of degradation / %": 74.78}

---

Tested on: Puccinia Recondita
assay-procedure: Preventive fungicidal activity (5 days) against Puccinia Recondita on wheat
Format: in vivo
condition-label: 125 ppm; wheat; treated parts (T)
In this section, each of the compounds is paired with its reported Activity P5 T (reduction of leaf area affected, parts treated directly).
property-label: Activity P5 T (reduction of leaf area affected, parts treated directly) (%)

{"compound": "CCN(C)C=Nc1cc(Br)c(OCCC(C)C)nc1C [CR1, reference compound]", "measure-unit": "%", "readout-number": 60}
{"compound": "CCCCCCSc1nc(C)c(N=CN(C)CC)cc1C", "measure-unit": "%", "readout-number": 95}
{"compound": "CCN(C)C=Nc1cc(C)c(SCc2c(F)cccc2F)nc1C", "measure-unit": "%", "readout-number": 95}
{"compound": "CCN(C)C=Nc1cc(C)c(SCC2CCCCC2)nc1C", "measure-unit": "%", "readout-number": 80}
{"compound": "CCN(C)C=Nc1cc(C)c(SCc2cccc(C(F)(F)F)c2)nc1C", "measure-unit": "%", "readout-number": 100}
{"compound": "CCN(C)C=Nc1cc(C)c(SCCC(C)C)nc1C", "measure-unit": "%", "readout-number": 100}

The measured values listed here are drawn from patent US20210100246A1.
